# reported logP; entries follow
Quantity: logP

INSERT INTO results (compound, quantity, observed_value) VALUES
  ('COc1c(Cl)c(Cl)c(Br)c(Cl)c1Cl', 'logP', 5.26),
  ('COc1c(Cl)c(Cl)c(Cl)c(Cl)c1Cl', 'logP', 5.16),
  ('COc1c(Cl)cccc1Cl', 'logP', 3.19),
  ('COc1ccc(Br)cc1Cl', 'logP', 3.77),
  ('COc1ccc(Br)cc1Br', 'logP', 3.75),
  ('COc1c(Br)c(Br)c(Br)c(Br)c1Br', 'logP', 5.43),
  ('COc1c(Br)cc(Cl)c(Cl)c1Cl', 'logP', 4.64),
  ('COc1c(Cl)c(Cl)cc(Br)c1Br', 'logP', 5.29),
  ('COc1cc(Cl)c(Br)c(Cl)c1Br', 'logP', 5.29),
  ('COc1c(Br)c(Cl)c(Cl)c(Cl)c1Br', 'logP', 5.55),
  ('COc1cc(Cl)ccc1Cl', 'logP', 3.27),
  ('COc1c(Cl)cc(Cl)cc1Br', 'logP', 4),
  ('COc1cccc(Cl)c1Cl', 'logP', 3.3),
  ('COc1c(Cl)cc(Br)cc1Cl', 'logP', 4.02),
  ('COc1cc(Cl)c(Cl)c(Cl)c1Br', 'logP', 4.97),
  ('COc1c(Br)cc(Cl)cc1Br', 'logP', 4.33),
  ('COc1ccccc1Br', 'logP', 2.87),
  ('COc1cc(Cl)c(Cl)c(Cl)c1Cl', 'logP', 4.57),
  ('COc1cccc(Br)c1', 'logP', 3.23),
  ('COc1c(Cl)ccc(Cl)c1Cl', 'logP', 3.76),
  ('COc1ccc(Cl)cc1Cl', 'logP', 3.46),
  ('COc1c(Cl)cccc1Br', 'logP', 3.44);
